Molecular target: MAGI1 PDZ 3 (Homo sapiens)
Construct: made in house; host or cells: E. coli
Sequence (Q96QZ7 643-721 limits assumed): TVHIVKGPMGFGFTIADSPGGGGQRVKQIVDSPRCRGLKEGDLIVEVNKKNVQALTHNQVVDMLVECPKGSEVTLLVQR
Assay: Holdup assay, MAGI1-3
Format: binding
Conditions: MAGI1-3
*1 amine or outer side, *2 acyl side, *3 side chain or, on linkers, in order; H or OH if unused. Where a SMILES comes first, the peptide text is derived from it. The star is where a group is joined. X1 = O=C(CCCC[C@@H]1SC[C@@H]2NC(=O)N[C@@H]21)NCCCOCCOCCOCCCN*; Suc = O=C(CCC(=O)[*:2])[*:1]
endpoint_name: BI

The compound CC[C@H](C)[C@H](NC(=O)[C@H](CCC(N)=O)NC(=O)[C@@H](NC(=O)[C@H](Cc1c[nH]cn1)NC(=O)[C@H](CCC(N)=O)NC(=O)[C@H](CC(=O)O)NC(=O)[C@H](CCC(=O)O)NC(=O)[C@H](CC(=O)O)NC(=O)[C@H](Cc1ccccc1)NC(=O)[C@@H]1CCCN1C(=O)CCC(=O)NCCCOCCOCCOCCCNC(=O)CCCC[C@@H]1SC[C@@H]2NC(=O)N[C@@H]21)[C@@H](C)O)C(=O)N[C@H](C(=O)N[C@@H](CCCCN)C(=O)N[C@H](C(=O)O)C(C)C)[C@@H](C)O [PTEN_13] ({X1-Suc}-PFDEDQHTQITKV-OH) showed BI equal to 0.584

// BI lookup, compound = CC[C@H](C)[C@H](NC(=O)[C@H](CCC(N)=O)NC(=O)[C@@H](NC(=O)[C@H](Cc1c[nH]cn1)NC(=O)[C@H](CCC(N)=O)NC(=O)[C@H](CC(=O)O)NC(=O)[C@H](CCC(=O)O)NC(=O)[C@H](CC(=O)O)NC(=O)CCC(=O)NCCCOCCOCCOCCCNC(=O)CCCC[C@@H]1SC[C@@H]2NC(=O)N[C@@H]21)[C@@H](C)O)C(=O)N[C@H](C(=O)N[C@@H](CCCCNC(C)=O)C(=O)N[C@H](C(=O)O)C(C)C)[C@@H](C)O , result: 0.715

Measured BI, CC[C@H](C)[C@H](NC(=O)[C@H](CCC(N)=O)NC(=O)[C@@H](NC(=O)[C@H](Cc1c[nH]cn1)NC(=O)[C@H](CCC(N)=O)NC(=O)[C@H](CC(=O)O)NC(=O)[C@H](CCC(=O)O)NC(=O)[C@H](CC(=O)O)NC(=O)CCC(=O)NCCCOCCOCCOCCCNC(=O)CCCC[C@@H]1SC[C@@H]2NC(=O)N[C@@H]21)[C@@H](C)O)C(=O)N[C@H](C(=O)N[C@@H](CCCNC(=N)N)C(=O)N[C@H](C(=O)O)C(C)C)[C@@H](C)O [PTEN_KR] ({X1-Suc}-DEDQHTQITRV-OH) : 0.605

Data point: CC[C@H](C)[C@H](NC(=O)[C@H](CCC(N)=O)NC(=O)[C@@H](NC(=O)[C@H](Cc1c[nH]cn1)NC(=O)[C@H](CCC(N)=O)NC(=O)[C@H](CC(=O)O)NC(=O)[C@H](CCC(=O)O)NC(=O)[C@H](CC(=O)O)NC(=O)CCC(=O)NCCCOCCOCCOCCCNC(=O)CCCC[C@@H]1SC[C@@H]2NC(=O)N[C@@H]21)[C@@H](C)O)C(=O)N[C@H](C(=O)N[C@@H](CCCCN)C(=O)N[C@H](C(=O)O)C(C)C)[C@@H](C)O ; BI = 0.519

---

Test system: 266 human PDZ domains (PDZome)
Assay: Holdup assay (chromatographic retention, PDZome-binding profile, BI)
Set-up: key: binding intensity: 0.00 = no binding, 1.00 = maximal binding
Settings: PDZ domain MPDZ-5
*1 amine or outer side, *2 acyl side, *3 side chain or, on linkers, in order; H or OH if unused. Where a SMILES comes first, the peptide text is derived from it. The star is where a group is joined. X1 = O=C(CCCC[C@@H]1SC[C@@H]2NC(=O)N[C@@H]21)NCCCOCCOCCOCCCN*; Suc = O=C(CCC(=O)[*:2])[*:1]
endpoint_name: BI

Short answer for CC[C@H](C)[C@H](NC(=O)[C@H](CCC(N)=O)NC(=O)[C@@H](NC(=O)[C@H](Cc1c[nH]cn1)NC(=O)[C@H](CCC(N)=O)NC(=O)[C@H](CC(=O)O)NC(=O)[C@H](CCC(=O)O)NC(=O)[C@H](CC(=O)O)NC(=O)[C@H](Cc1ccccc1)NC(=O)[C@@H]1CCCN1C(=O)CCC(=O)NCCCOCCOCCOCCCNC(=O)CCCC[C@@H]1SC[C@@H]2NC(=O)N[C@@H]21)[C@@H](C)O)C(=O)N[C@H](C(=O)N[C@@H](CCCCN)C(=O)N[C@H](C(=O)O)C(C)C)[C@@H](C)O [PTEN_13] ({X1-Suc}-PFDEDQHTQITKV-OH) : BI was -0.002

---

Target: GOPC-1 (Homo sapiens, UniProt Q9HD26)
Assay: Holdup assay, GOPC-1
Type: binding
endpoint_name: Kd (µM)
Give just the numeric value; µM need not be written.

Here CC[C@H](C)[C@H](NC(=O)[C@H](CCC(N)=O)NC(=O)[C@@H](NC(=O)[C@H](Cc1c[nH]cn1)NC(=O)[C@H](CCC(N)=O)NC(=O)[C@H](CC(=O)O)NC(=O)[C@H](CCC(=O)O)NC(=O)[C@H](CC(=O)O)NC(=O)CCC(=O)NCCCOCCOCCOCCCNC(=O)CCCC[C@@H]1SC[C@@H]2NC(=O)N[C@@H]21)[C@@H](C)O)C(=O)N[C@H](C(=O)N[C@@H](CCCCNC(C)=O)C(=O)N[C@H](C(=O)O)C(C)C)[C@@H](C)O [PTEN_Ac] was tested on GOPC-1 (Homo sapiens, UniProt Q9HD26), and its Kd came to 38.9

---

Test system: 266 human PDZ domains (PDZome)
Assay: Holdup assay (chromatographic retention, PDZome-binding profile, BI)
Design: key: binding intensity: 0.00 = no binding, 1.00 = maximal binding
Conditions: PDZ domain MPDZ-6
endpoint_name: BI
Lab note: jot down the number only; don't add units.

The compound CC[C@H](C)[C@H](NC(=O)[C@H](CCC(N)=O)NC(=O)[C@@H](NC(=O)[C@H](Cc1c[nH]cn1)NC(=O)[C@H](CCC(N)=O)NC(=O)[C@H](CC(=O)O)NC(=O)[C@H](CCC(=O)O)NC(=O)[C@H](CC(=O)O)NC(=O)CCC(=O)NCCCOCCOCCOCCCNC(=O)CCCC[C@@H]1SC[C@@H]2NC(=O)N[C@@H]21)[C@@H](C)O)C(=O)N[C@H](C(=O)N[C@@H](CCCCN)C(=O)N[C@H](C(=O)O)C(C)C)[C@@H](C)O [PTEN_11] showed BI equal to -0.029

---

Test system: 266 human PDZ domains (PDZome)
Assay: Holdup assay (chromatographic retention, PDZome-binding profile, BI)
Design: key: binding intensity: 0.00 = no binding, 1.00 = maximal binding
Conditions: PDZ domain NHERF4-1
*1 amine or outer side, *2 acyl side, *3 side chain or, on linkers, in order; H or OH if unused. Where a SMILES comes first, the peptide text is derived from it. The star is where a group is joined. X1 = O=C(CCCC[C@@H]1SC[C@@H]2NC(=O)N[C@@H]21)NCCCOCCOCCOCCCN*; Suc = O=C(CCC(=O)[*:2])[*:1]
endpoint_name: BI
Give the figure by itself; no unit, no explanation.

Lab note: compound CC[C@H](C)[C@H](NC(=O)[C@H](CCC(N)=O)NC(=O)[C@@H](NC(=O)[C@H](Cc1c[nH]cn1)NC(=O)[C@H](CCC(N)=O)NC(=O)[C@H](CC(=O)O)NC(=O)[C@H](CCC(=O)O)NC(=O)[C@H](CC(=O)O)NC(=O)CCC(=O)NCCCOCCOCCOCCCNC(=O)CCCC[C@@H]1SC[C@@H]2NC(=O)N[C@@H]21)[C@@H](C)O)C(=O)N[C@H](C(=O)N[C@@H](CCCNC(=N)N)C(=O)N[C@H](C(=O)O)C(C)C)[C@@H](C)O [PTEN_KR] ({X1-Suc}-DEDQHTQITRV-OH) tested on 266 human PDZ domains (PDZome); recorded BI was 0.041

---

Target: DLG4 PDZ 3 (Homo sapiens)
Construct: made in house; host or cells: E. coli
Sequence (P78352 313-393 limits assumed): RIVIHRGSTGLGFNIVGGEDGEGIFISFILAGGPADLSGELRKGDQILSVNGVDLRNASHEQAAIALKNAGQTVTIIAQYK
Test: Holdup assay, DLG4-3
Assay type: binding
Method: The holdup assay was performed on a Tecan freedom Evo200 robot with 384-well plates in singlicate for the three 11-mer PTEN variants and the 13-mer PTEN peptide as described in [31, 32]. […] After a sufficient time to reach complex equilibrium (15 min.), a fast and mild filtration step is performed and the tag-PDZ concentrations were measured by capillary electrophoresis instrument (LabChip GXII, PerkinElmer, Massachusets, USA). […]
*1 amine or outer side, *2 acyl side, *3 side chain or, on linkers, in order; H or OH if unused. Where a SMILES comes first, the peptide text is derived from it. The star is where a group is joined. X1 = O=C(CCCC[C@@H]1SC[C@@H]2NC(=O)N[C@@H]21)NCCCOCCOCCOCCCN*; Suc = O=C(CCC(=O)[*:2])[*:1]
endpoint_name: BI
I only need the number, thanks.

BI recorded for this compound, CC[C@H](C)[C@H](NC(=O)[C@H](CCC(N)=O)NC(=O)[C@@H](NC(=O)[C@H](Cc1c[nH]cn1)NC(=O)[C@H](CCC(N)=O)NC(=O)[C@H](CC(=O)O)NC(=O)[C@H](CCC(=O)O)NC(=O)[C@H](CC(=O)O)NC(=O)CCC(=O)NCCCOCCOCCOCCCNC(=O)CCCC[C@@H]1SC[C@@H]2NC(=O)N[C@@H]21)[C@@H](C)O)C(=O)N[C@H](C(=O)N[C@@H](CCCCNC(C)=O)C(=O)N[C@H](C(=O)O)C(C)C)[C@@H](C)O , is -0.024

Note to self: BI recorded for CC[C@H](C)[C@H](NC(=O)[C@H](CCC(N)=O)NC(=O)[C@@H](NC(=O)[C@H](Cc1c[nH]cn1)NC(=O)[C@H](CCC(N)=O)NC(=O)[C@H](CC(=O)O)NC(=O)[C@H](CCC(=O)O)NC(=O)[C@H](CC(=O)O)NC(=O)CCC(=O)NCCCOCCOCCOCCCNC(=O)CCCC[C@@H]1SC[C@@H]2NC(=O)N[C@@H]21)[C@@H](C)O)C(=O)N[C@H](C(=O)N[C@@H](CCCCN)C(=O)N[C@H](C(=O)O)C(C)C)[C@@H](C)O was -0.018

Lab note: CC[C@H](C)[C@H](NC(=O)[C@H](CCC(N)=O)NC(=O)[C@@H](NC(=O)[C@H](Cc1c[nH]cn1)NC(=O)[C@H](CCC(N)=O)NC(=O)[C@H](CC(=O)O)NC(=O)[C@H](CCC(=O)O)NC(=O)[C@H](CC(=O)O)NC(=O)[C@H](Cc1ccccc1)NC(=O)[C@@H]1CCCN1C(=O)CCC(=O)NCCCOCCOCCOCCCNC(=O)CCCC[C@@H]1SC[C@@H]2NC(=O)N[C@@H]21)[C@@H](C)O)C(=O)N[C@H](C(=O)N[C@@H](CCCCN)C(=O)N[C@H](C(=O)O)C(C)C)[C@@H](C)O [PTEN_13] ({X1-Suc}-PFDEDQHTQITKV-OH) gave BI of -0.097

The reported BI of the compound CC[C@H](C)[C@H](NC(=O)[C@H](CCC(N)=O)NC(=O)[C@@H](NC(=O)[C@H](Cc1c[nH]cn1)NC(=O)[C@H](CCC(N)=O)NC(=O)[C@H](CC(=O)O)NC(=O)[C@H](CCC(=O)O)NC(=O)[C@H](CC(=O)O)NC(=O)CCC(=O)NCCCOCCOCCOCCCNC(=O)CCCC[C@@H]1SC[C@@H]2NC(=O)N[C@@H]21)[C@@H](C)O)C(=O)N[C@H](C(=O)N[C@@H](CCCNC(=N)N)C(=O)N[C@H](C(=O)O)C(C)C)[C@@H](C)O [PTEN_KR] ({X1-Suc}-DEDQHTQITRV-OH) was 0.043
